Experiment: NCI Yeast Anticancer Drug Screen. Data for the mlh1 rad18 strain (AID 175)
Conditions: S. cerevisiae mlh1 rad18 strain growth inhibition; at 50.0 µM; stronger effect = higher value
The panel holds about 79,000 compounds, 15% with a hit somewhere; the sample as a whole holds those more often.
MEASURED PROPERTY: growth inhibition (%)
Quick note: give the figure in %, leave out the unit.

# annotated cases, reported growth inhibition shown
| COMPOUND | MEASUREMENT UNITS | OBSERVED RESULT |
| --- | --- | --- |
| O=S(=O)(c1ccc(NC(=S)NCc2ccco2)cc1)N1CCCCC1 | % | 25.6 |
| O=C(N(Cc1ccccc1)c1ccccc1)C(Cl)(Cl)Cl | % | 78 |
| N#C/C(=N\NC(=O)c1cccc(C(=O)N/N=C(\C#N)c2ccccc2Cl)n1)c1ccccc1Cl | % | 4.2 |
| CCC[N+]1=C/c2ccccc2OC(=O)/C=C\1[O-] | % | -1.1 |
| O=C(O)CCCCl | % | 26 |

Incoming: // growth inhibition lookup, key: COc1ccc(C2C(=O)c3ccc(OC)cc3OC2c2cccnc2)cc1 (stereo unspecified)
Outgoing: 25.2

Incoming: // growth inhibition lookup, key: CC(C)(N)CNc1ccccc1
Outgoing: -4.4

Incoming: // growth inhibition lookup, key: COC(OC)c1cccc2c1C(=O)CCC1(CC2)OCCCCO1
Outgoing: -11.2

* * *

Overview of reported growth inhibition across a group of molecules:
Assay: NCI Yeast Anticancer Drug Screen. Data for the cln2 rad14 strain (AID 165);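 also: 0% = growth equal to vehicle treated cultures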
Conditions: S. cerevisiae cln2 rad14 strain, at 50.0 µM, stronger effect = higher value
The panel holds about 79,000 compounds, 15% with a hit somewhere; the sample as a whole holds those more often.
Quick note: give the figure in %, leave out the unit.

# annotated cases, reported growth inhibition shown
| MOLECULE | MEASUREMENT UNITS | growth inhibition |
| --- | --- | --- |
| NC(=O)CC(NC(=O)C(F)(F)F)C(=O)O (stereo unspecified) | % | -6.85 |
| Clc1nncc(SCc2ccccc2)c1SCc1ccccc1 | % | -9 |
| CCOCCOCCOCc1nc(C#N)c(N)o1 | % | -14.8 |
| NCc1cnccn1 | % | 8.45 |
| O=C(O)c1ccc(C2C3C=CC(C3)C2[N+](=O)[O-])cc1 (stereo unspecified) | % | 5.85 |

Incoming: // growth inhibition lookup, key: O=C1C(=O)N(C2CCCCC2)C(=S)N1C1CCCCC1
Outgoing: -2.5

Incoming: // growth inhibition lookup, key: [O-][n+]1ccccc1/C=C/c1cccc[n+]1[O-]
Outgoing: -22

Incoming: // growth inhibition lookup, key: Nc1cccc(CC(=O)c2ccccc2)n1
Outgoing: -8.55

Incoming: // growth inhibition lookup, key: c1ccc(-c2cccc(-c3cccc(-c4ccccc4)c3)c2)cc1
Outgoing: -47.9

Incoming: // growth inhibition lookup, key: O=C(COc1ccc(Cl)cc1)Oc1c(Cl)cc(Cl)cc1Cl
Outgoing: 96.8

Incoming: // growth inhibition lookup, key: Cc1nc(N)sc1N=Nc1ccc(Br)cc1Br
Outgoing: 63.1

Incoming: // growth inhibition lookup, key: CC1COS(=O)(=O)CS(=O)(=O)O1 (stereo unspecified)
Outgoing: -57.8

Incoming: // growth inhibition lookup, key: Oc1ccccc1CN1CCOCC1
Outgoing: 13.8

Incoming: // growth inhibition lookup, key: CC(=O)OC(C)N(C(C)=O)c1ncc([N+](=O)[O-])s1 (stereo unspecified)
Outgoing: -14.3

Incoming: // growth inhibition lookup, key: OC(c1ccccc1)(c1ccccc1)C1CC1
Outgoing: 7

Incoming: // growth inhibition lookup, key: CC1(C)C(=O)NC(=O)N1CO
Outgoing: 19.9

Incoming: // growth inhibition lookup, key: O=C1OC(c2ccccc2)=N/C1=C\c1cccnc1
Outgoing: -10.3

* * *

Test: NCI Yeast Anticancer Drug Screen. Data for the cln2 rad14 strain (AID 165);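 also: 0% = growth equal to vehicle treated cultures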
Details: S. cerevisiae cln2 rad14 strain, at 50.0 µM, stronger effect = higher value
The panel holds about 79,000 compounds, 15% with a hit somewhere; the sample as a whole holds those more often.
Overview of reported growth inhibition across a group of compounds:
Quick note: give the figure in %, leave out the unit.

| COMPOUND | MEASUREMENT UNITS | growth inhibition |
| --- | --- | --- |
| COC(=O)C1CC(=O)CCC1c1ccccc1 (configuration not stated) | % | -6.45 |
| Oc1ccccc1C=Nc1ccc(N2CCOCC2)cc1 | % | -4.2 |
| O=C(SCc1ccccc1)C(O)c1ccccc1 (configuration not stated) | % | -24.6 |
| CN(C)c1ccc([Si](c2ccc(N(C)C)cc2)c2ccc(N(C)C)cc2)cc1 | % | -28.8 |
| OCCCCCCOc1ccc(-c2cc(-c3ccccn3)nc(-c3ccccn3)c2)cc1 | % | 64.9 |

Incoming: // growth inhibition lookup, key: O=C(O)C1=C(C(=O)O)C2CCCC3C4CCCCC4N(N1)C23 (configuration not stated)
Outgoing: 3.9

Incoming: // growth inhibition lookup, key: COc1ccc(NC(C)=O)c(C(O)CCNC(C)=O)c1 (configuration not stated)
Outgoing: -7.8

Incoming: // growth inhibition lookup, key: Nc1cc2cn[nH]c2cc1N
Outgoing: -8.75

Incoming: // growth inhibition lookup, key: Cc1ccc(S(=O)(=O)OCC2CC=CCC2COS(=O)(=O)c2ccc(C)cc2)cc1 (configuration not stated)
Outgoing: -15.2

Incoming: // growth inhibition lookup, key: CN1CCC2(CC1)C(=O)N(NC(N)=O)C(=O)C2c1ccccc1 (configuration not stated)
Outgoing: 1.2

Incoming: // growth inhibition lookup, key: Cc1ccc(S(=O)(=O)NCC(=O)OCc2ccccc2)cc1
Outgoing: -0.55

Incoming: // growth inhibition lookup, key: CN(C)/C=C/c1ccnc2c1C(=O)c1ccccc1C2=O
Outgoing: 67.8

* * *

Assay: NCI Yeast Anticancer Drug Screen. Data for the mec2-1 strain (AID 157)
Conditions: S. cerevisiae mec2-1 strain, at 50.0 µM, stronger effect = higher value
This is part of a sample that, as a whole, favours compounds with a hit. Of some 79,000 tested, about 15% had one in any assay.
Overview of reported growth inhibition across a group of compounds:
Quick note: give the figure in %, leave out the unit.

# annotated cases, reported growth inhibition shown
| COMPOUND | MEASUREMENT UNITS | growth inhibition |
| --- | --- | --- |
| COc1ccccc1/C=N/Nc1nnc2c3ccccc3c3ncccc3c2n1 | % | -45.8 |
| Cc1cc(C)nc(NS(=O)(=O)c2ccc(NC(=O)c3cccn4c(=O)c5ccccc5nc34)cc2)n1 | % | 0.6 |
| CC(Cc1ccccc1)Nc1ccccc1 (configuration not stated) | % | 3.5 |
| Cc1oc2nc(N(C)C)nc(NN)c2c1C | % | 5.55 |
| CC(=O)Oc1ccccc1C1CCCCC1 | % | -28.6 |
| COC1OC(CS(=O)(=O)O)C(O)C(O)C1O (configuration not stated) | % | -2.15 |
| CC(=O)O[C@]12CCCCCC1C1(O)C(O)CCC[C@H]12 (some centres not stated) | % | -19.9 |
| CCCCCCCCCCCCCCC(=O)OCCN(C)C | % | -18 |
| COc1cc2c(c(OC)c1OC)C(=O)[C@H]1OC(=O)N[C@@H]21 | % | 3.05 |
| O=[N+]([O-])C(=C(N1CCCCC1)N1CCCCC1)/C(Cl)=C(\Cl)Br | % | 11.2 |

Incoming: // growth inhibition lookup, key: CCSSC12CCCN1C(=O)C1CCCN1C2=O (configuration not stated)
Outgoing: 40.9

Incoming: // growth inhibition lookup, key: c1ccc(C[n+]2cccc3ccccc32)cc1
Outgoing: -29.6

* * *

Assay: NCI Yeast Anticancer Drug Screen. Data for the rad50 strain (AID 155);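 also: 0% = growth of vehicle-only cultures of the same strain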
Details: S. cerevisiae rad50 strain growth inhibition; at 50.0 µM; stronger effect = higher value
The panel holds about 79,000 compounds, 15% with a hit somewhere; the sample as a whole holds those more often.
MEASURED PROPERTY: growth inhibition (%)
Quick note: give the figure in %, leave out the unit.

# annotated cases, reported growth inhibition shown
| MOLECULE | MEASURED PROPERTY | MEASUREMENT UNITS | OBSERVED RESULT |
| --- | --- | --- | --- |
| O=C1NC(=O)N(C(F)(F)F)C(F)(F)N1C(F)(F)F | growth inhibition | % | 1.25 |
| Cc1ccc(N=Nc2ccc(O)c(CN(C)C)c2)cc1C | growth inhibition | % | -26.4 |
| O=C(OCc1ccccc1)N(CCCCN(CCCNC(=O)C(F)(F)F)C(=O)OCc1ccccc1)CCCNC(=O)C(F)(F)F | growth inhibition | % | -14.8 |

Incoming: // growth inhibition lookup, key: CCC(N)CS(=O)(=O)O (stereo unspecified)
Outgoing: -33.7

Incoming: // growth inhibition lookup, key: BrC1CCC(Br)CC1 (stereo unspecified)
Outgoing: 7.1

Incoming: // growth inhibition lookup, key: CC(C)C1=CC23CCC4C(C)(C(=O)O)CCCC4(C)C2CC1C1C(=O)N(CCCN(C)C)C(=O)C13 (stereo unspecified)
Outgoing: 98.8

Incoming: // growth inhibition lookup, key: Cc1ccc2c(c1)C(=O)C1(C2)Cc2ccc(C)cc2C1=O
Outgoing: -53

Incoming: // growth inhibition lookup, key: CC1C(c2ccccc2)(N(C)C)CS1(=O)=O (stereo unspecified)
Outgoing: -3.15

Incoming: // growth inhibition lookup, key: CCc1c(Cc2[nH]c(Cc3[nH]c(C=O)c(C)c3CC)c(CC)c2CC)[nH]c(C=O)c1C
Outgoing: 5.25

Incoming: // growth inhibition lookup, key: CCOC(=O)c1oc2ccc([N+](=O)[O-])c3c2c1CCC3
Outgoing: 1.8

Incoming: // growth inhibition lookup, key: C=CC[n+]1cccc(Oc2ccc([N+](=O)[O-])cc2[N+](=O)[O-])c1
Outgoing: 73.7
